# test method notes: qHTS assay for small molecule disruptors of the mitochondrial membrane potential (AID 720635)
# assay context: HepG2 mitochondrial membrane potential, Mito-MPS dye ratio; series mostly up to 83.2 µM
Records with an inconclusive call do not appear. Active and inactive are the calls of the source. Calls follow the shape of the dose curve; as a rule, active = well fitted inhibition curve with a large enough effect in the signal ratio in the repeat runs; inconclusive = weak or mixed curves, or effect the other way; inactive = flat fitted curve, though single readings scatter; the % refers to the signal ratio.
Possible outcomes: active, inactive

{"compound": "C[C@]12CCC(=O)C=C1C=C[C@@H]1[C@@H]2CC[C@@]2(C)[C@H]1CC[C@@]21CCC(=O)O1", "class assignment": "inactive"}
{"compound": "COCCOC(=O)C1=C(C)NC(C)=C(C(=O)OC/C=C/c2ccccc2)C1c1cccc([N+](=O)[O-])c1 (stereo unspecified)", "class assignment": "active"}
{"compound": "CCCCCCCC/C=C\\CCCCCCCC(=O)OC", "class assignment": "inactive"}
{"compound": "Oc1cc(O)c(Cl)cc1Cl", "class assignment": "active"}
{"compound": "CC(=O)Oc1ccc2c(c1)CC[C@@H]1[C@@H]2CC[C@]2(C)[C@@H](O)CC[C@@H]12", "class assignment": "active"}
{"compound": "CCc1cccc(N(C)C(N)=Nc2cccc3ccccc23)c1", "class assignment": "inactive"}
{"compound": "OCCSc1ccccc1", "class assignment": "inactive"}
{"compound": "Cc1ccc(Nc2nccc(N(C)c3ccc4c(C)n(C)nc4c3)n2)cc1S(N)(=O)=O", "class assignment": "active"}
{"compound": "Nc1nccs1", "class assignment": "inactive"}
{"compound": "O=C(N/N=C/c1ccc([N+](=O)[O-])o1)c1ccc(O)cc1", "class assignment": "active"}
{"compound": "O=C(CCCCCCC(=O)Nc1ccccc1)NO", "class assignment": "inactive"}
{"compound": "C[C@@H]1C[C@H]2[C@@H]3CCC4=CC(=O)C=C[C@]4(C)[C@@]3(F)[C@@H](O)C[C@]2(C)[C@H]1C(=O)CO", "class assignment": "inactive"}
{"compound": "CC(=O)OCC(=O)[C@H]1CC[C@H]2[C@@H]3CCC4=CC(=O)CC[C@]4(C)[C@H]3CC[C@]12C", "class assignment": "inactive"}
{"compound": "CCC(Cc1ccccc1)(C(=O)c1ccc(N2CCOCC2)cc1)N(C)C (stereo unspecified)", "class assignment": "active"}
{"compound": "Cc1cnc(C)c(C)n1", "class assignment": "inactive"}
{"compound": "Cc1ccc(/C=N/n2c(-c3ccccc3)csc2=S)cc1", "class assignment": "active"}
